# TEST SYSTEM: UniProt P16581
# Sequence (P16581 whole entry): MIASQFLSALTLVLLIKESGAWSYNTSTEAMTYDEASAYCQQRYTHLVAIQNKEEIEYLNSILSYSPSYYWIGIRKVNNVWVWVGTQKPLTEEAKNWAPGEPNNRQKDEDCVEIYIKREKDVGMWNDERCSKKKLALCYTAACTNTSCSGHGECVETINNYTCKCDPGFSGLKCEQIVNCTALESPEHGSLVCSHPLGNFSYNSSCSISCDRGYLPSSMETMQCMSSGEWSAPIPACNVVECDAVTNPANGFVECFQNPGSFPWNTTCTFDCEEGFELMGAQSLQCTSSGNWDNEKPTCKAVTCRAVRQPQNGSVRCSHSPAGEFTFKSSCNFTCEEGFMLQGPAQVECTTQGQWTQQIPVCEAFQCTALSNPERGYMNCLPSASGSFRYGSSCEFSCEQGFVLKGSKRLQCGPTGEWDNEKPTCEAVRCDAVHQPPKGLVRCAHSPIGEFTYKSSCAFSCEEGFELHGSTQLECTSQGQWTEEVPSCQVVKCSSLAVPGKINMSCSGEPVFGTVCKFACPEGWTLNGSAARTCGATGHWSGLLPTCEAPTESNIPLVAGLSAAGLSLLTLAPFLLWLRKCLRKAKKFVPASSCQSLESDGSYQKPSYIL
# TEST NAME: Compound was evaluated for its inhibitory activity against adhesion of HL-60(human promyelocytic leukemia cells) to recombinant human soluble E-selectin (rhsE).
# maps each entry to its IC50
METRIC: IC50 (µM)

* COC(=O)N[C@@H]1C(O)C(OC2C(O)[C@H](O[C@@H]3C(CO)O[C@@H](OCCCO[C@@H]4CCC[C@H](OCCCO[C@@H]5OC(CO)[C@@H](O[C@@H]6OC(CO)[C@H](O)C(OC7C(O)[C@@H](NC(=O)OC)C([C@H](O)[C@H](O)CO)O[C@H]7C(=O)O)C6O)C(O[C@@H]6OC(C)[C@H](O)C(O)C6O)C5Nc5ccc6ccccc6c5)C4)C(Nc4ccc5ccccc5c4)C3O[C@@H]3OC(C)[C@H](O)C(O)C3O)OC(CO)[C@@H]2O)[C@H](C(=O)O)OC1[C@H](O)[C@H](O)CO (some centres undefined) | 41
* CCO[C@@H]1O[C@@H](CO)[C@@H](O[C@@H]2O[C@@H](CO)[C@H](O)[C@H](O[C@]3(C(=O)O)C[C@@H](O)[C@@H](NC(C)=O)[C@H]([C@H](O)[C@H](O)CO)O3)[C@@H]2O)[C@H](O[C@@H]2O[C@@H](C)[C@@H](O)[C@H](O)[C@@H]2O)[C@@H]1NC(C)=O | 1500
* COC(=O)N[C@@H]1C(O)C(OC2C(O)[C@H](O[C@@H]3C(CO)O[C@@H](OCCCO[C@H]4CCC[C@H](OCCCO[C@@H]5OC(CO)[C@@H](O[C@@H]6OC(CO)[C@H](O)C(OC7C(O)[C@@H](NC(=O)OC)C([C@H](O)[C@H](O)CO)O[C@H]7C(=O)O)C6O)C(O[C@@H]6OC(C)[C@H](O)C(O)C6O)C5Nc5ccc6ccccc6c5)C4)C(Nc4ccc5ccccc5c4)C3O[C@@H]3OC(C)[C@H](O)C(O)C3O)OC(CO)[C@@H]2O)[C@H](C(=O)O)OC1[C@H](O)[C@H](O)CO (some centres undefined) | 49
* CC(=O)N[C@H]1[C@H]([C@H](O)[C@H](O)CO)O[C@@](O[C@@H]2[C@H](O)[C@H](O[C@H]3[C@H](O[C@@H]4O[C@@H](C)[C@@H](O)[C@H](O)[C@@H]4O)[C@H](NC(=O)c4ccc5ccccc5c4)[C@H](OCCCc4cccc(CCCO)c4)O[C@H]3CO)O[C@@H](CO)[C@@H]2O)(C(=O)O)C[C@H]1O | 200
